assay: physchem; conditions: 25 °C, water
Experimental endpoint: solubility

I would be grateful if you could share the reported solubility for CCCC[C@]1(CC)CS(=O)(=O)c2ccc(N(C)C)cc2[C@@H](c2cccc(NC(=O)N[C@@H]3O[C@H](COS(=O)(=O)O)[C@@H](O)[C@H](OCc4ccccc4)[C@H]3O)c2)[C@H]1O [volixibat] .
> 200 mg/mL
